assay: chemical genetic growth profiling, strain panel (AID 1159580);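 note: tested at 20 µM; growth read once vehicle control cultures reached saturation at 30 °C; lower values mean less growth of the strain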; conditions: S. cerevisiae deletion strains, growth OD, locus YMR307W, strain GAS1
Out of some 5,500 compounds screened, about 2,000 (36%) were called active. Roughly 18% stayed inconclusive and do not appear here. Cut-off read from the data, not from the text of the source: active = normalized growth mostly below about 0.91 (no sharp cut-off); inconclusive = no clear call, values can overlap the other calls; inactive = mostly above about 0.92. The list shows a part of the results.
Hi! Could you answer with just one of these? Y = active, N = inactive

Here's what some known entries look like.
molecule | assigned.class
CC(=O)[C@H]1CCC2C3CC=C4C[C@@H](OS(=O)(=O)O)CC[C@]4(C)C3CC[C@@]21C (stereo not given in full) | N
COc1ccc2c(c[n+](C)c3c4cc5c(cc4ccc23)OCO5)c1OC | Y
CCC(/C=C/[C@@H](C)[C@H]1CCC2C3CC=C4C[C@@H](O)CC[C@]4(C)C3CC[C@@]21C)C(C)C (stereo not given in full) | N
COC(=O)C1=C(C)NC(C)=C(C(=O)OCCN(C)Cc2ccccc2)C1c1cccc([N+](=O)[O-])c1 (stereo not given) | N
COc1cc2cc[n+]3cc4c(OC)c(OC)ccc4cc3c2cc1OC | N
COc1ccc2cc3[n+](cc2c1OC)CCc1cc2c(cc1-3)OCO2 | N

IN: Dear colleague, could you share the recorded outcome for CC1=CCc2c(cc3oc(C)cc(=O)c3c2O)OC1 when you have a moment?
OUT: N

IN: What about this molecule? CC1NC(=O)NC1=O (stereo not given)
OUT: N

IN: COc1ccc2c(c1OC)C(=O)O[C@@H]2[C@H]1c2c(cc3c(c2OC)OCO3)CCN1C ?
OUT: N

IN: Proceed to N[C@@H](Cn1cc(I)c(=O)[nH]c1=O)C(=O)O
OUT: N
